# TARGET DESC: T1, human ActRIIA (human, UniProt P27037 20-135, limits assumed);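 note: immunoglobulin held at a fixed level and mixed with serially diluted antigen overnight at 4 °C to equilibrium, then unbound antibody captured on antigen-coated plates and read by electrochemiluminescence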
# T1 construct: antigen in MSD-SET; also called ACVR2A; ActR2A
# T1 sequence (P27037 20-135 limits assumed): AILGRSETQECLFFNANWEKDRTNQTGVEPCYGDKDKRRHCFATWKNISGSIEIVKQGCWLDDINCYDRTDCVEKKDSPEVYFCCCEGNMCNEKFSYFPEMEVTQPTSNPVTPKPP
# ASSAY OVERVIEW: MSD-SET
Let's look at some binders and their measured Kd.

# BINDER, Kd [nM]
rows = [
    ("Schwardamaga, Human IgG1-PALALA (antibody, V domains shown, human IgG1 with PA-LALA (L234A/L235A/P329A), EU numbering) VH: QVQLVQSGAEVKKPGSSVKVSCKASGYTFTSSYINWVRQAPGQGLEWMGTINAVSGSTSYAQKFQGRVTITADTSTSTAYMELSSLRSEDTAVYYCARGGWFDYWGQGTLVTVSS VL: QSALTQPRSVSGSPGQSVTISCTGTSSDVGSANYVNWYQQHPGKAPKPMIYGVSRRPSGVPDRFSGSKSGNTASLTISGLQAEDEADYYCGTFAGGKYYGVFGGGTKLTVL", 0.036),
    ("Soidawürstle, Human IgG1-PALALA-YTE (antibody, V domains shown, human IgG1 with PA-LALA (L234A/L235A/P329A) and YTE (M252Y/S254T/T256E), EU numbering) VH: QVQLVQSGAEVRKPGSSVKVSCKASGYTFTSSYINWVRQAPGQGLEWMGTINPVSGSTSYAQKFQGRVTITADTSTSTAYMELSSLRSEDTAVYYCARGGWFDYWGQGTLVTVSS VL: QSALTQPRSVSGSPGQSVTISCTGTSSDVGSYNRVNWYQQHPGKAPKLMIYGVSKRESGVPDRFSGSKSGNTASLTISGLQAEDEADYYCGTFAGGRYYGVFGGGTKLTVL", 0.034),
]
